Ref: PubChem BioAssay (NCI)

Reported growth inhibition values follow for various molecules
- METHOD_DESCRIPTION: NCI Yeast Anticancer Drug Screen. Data for the mlh1 rad18 strain (AID 175)
- CONDITION_LABEL: S. cerevisiae mlh1 rad18 strain growth inhibition; at 50.0 µM (retest, dose inferred, filed as 5.0); hits give high values
About 79,000 compounds went through this panel and 15% of them were active in at least one assay; those are over-represented in the sample as a whole.
Expressed in %, but write only the number.

CC1=C(C(=O)Nc2cc(C)ccc2C)C(c2cccc([N+](=O)[O-])c2)C(C(=O)Nc2cc(C)ccc2C)=C(C)N1 :: 65
NS(=O)(=O)c1ccc(NC(=S)/N=C/c2c(O)c3ccccc3[nH]c2=O)cc1 :: 30
Cn1c2c(c3nc(N)nc(N)c3c1=O)CCc1ccccc1-2 :: 36
COc1cc(CC#N)c(NC(C)=O)cc1OC :: -3

Moving on to the next molecule.
growth inhibition recorded for this molecule, `COC1=C(Br)C(=O)N/C1=C(\OC)c1ccccc1` , is 4

----------
Entries annotated with measured growth inhibition
- METHOD_DESCRIPTION: NCI Yeast Anticancer Drug Screen. Data for the bub3 strain (AID 167)
- CONDITION_LABEL: S. cerevisiae bub3 mutant strain, at 50.0 µM, hits give high values
About 79,000 compounds went through this panel and 15% of them were active in at least one assay; those are over-represented in the sample as a whole. Calls of active or inactive are those of the source. Rule as the data show it: active = growth inhibition above about 70%; inactive = the rest.

Reference set (3 entries):
CCN(CC)CCOC(=O)c1ccc(N=Nc2ccc(O)c3ccccc23)cc1 :: 41.1% (inactive)
CCC(=O)/C(=C\c1ccccc1)C(=O)C(C)CN(C)C (centres undefined) :: 33.8% (inactive)
O=C(N/C(=C\c1cccc([N+](=O)[O-])c1)c1nc2ccccc2s1)c1ccccc1 :: 97.8% (active)

Here is the next item to consider.
growth inhibition in this record for CC12CCC(=O)C=C1C=CC1C2CCC2(C)C1CCC21CCC(=O)O1 (centres undefined) : 66.7% (inactive)

----------
- METHOD_DESCRIPTION: NCI Yeast Anticancer Drug Screen. Data for the bub3 strain (AID 167)
- CONDITION_LABEL: S. cerevisiae bub3 mutant strain, at 5.0 µM (retest, dose inferred, filed as 0.5)
The panel holds about 79,000 compounds, 15% with a hit somewhere; the sample as a whole holds those more often. Active and inactive are the calls of the source. Cut-off read from the data, not from the text of the source: active = growth inhibition above about 70%; inactive = the rest.
Give one outcome, nothing more. List: active, inactive

# count of solved cases: 10
COc1nc(N)c(N=O)c(OCc2ccccc2)n1 :: active
NC(=O)NOC(=O)c1ccccc1 :: inactive
CC1(C)CC(=O)C2=C(C1)OC1=C(C(=O)CC(C)(C)C1)C2CC(c1ccccc1)c1ccc(O)c(O)c1O (configuration not stated) :: inactive
CC(NC(=O)C(NC(=O)C(NC(=O)C(F)(F)F)C(C)C)C(C)C)C(=O)Oc1c(Cl)c(Cl)c(Cl)c(Cl)c1Cl (configuration not stated) :: inactive
CC1CCCC(CCN(C)CCC2CCCCC2)CC1 (configuration not stated) :: inactive
OC(CN1CCc2ccccc2C1)c1ccc2ccccc2c1 (configuration not stated) :: inactive
O=c1[nH]c2ccc([N+](=O)[O-])cc2c2ccc(Cl)cc12 :: inactive
CC(C)OC(=S)SSSC(=S)OC(C)C :: inactive
CCCCNC(=S)N/N=C/c1cccc(C)n1 :: inactive
COc1ccc(OC(=O)c2ccccc2)c2c1C(=O)C=CC2=O :: inactive

Turning now to a further record.
## Input Please indicate how the test categorized `COc1cc(O)c2c(=O)c3cccc(C)c3[nH]c2c1` .
## Output inactive
